# Tested on: SF-295 CNS
# assay: NCI-60 one-dose screen, 48 h
# details: 10 µM unless noted
About 83,000 compounds went through this panel and 20% of them were active in at least one assay; those are over-represented in the sample as a whole. Active and inactive are the calls of the source. The calls were made as follows: active = growth percent below 10; inactive = the rest.
Hello, when you answer, please use one of the following outcomes: active, inactive

Recorded results for 5 compounds are shown here.
COc1cccc(NC(=O)c2sc3nc(C)c(C(C)=O)cc3c2N)c1	inactive
O=C(N/N=C/c1c[nH]c2ccccc12)c1cc(-c2ccccc2)on1	inactive
C[n+]1ccccc1/C=C/c1ccc2cccc(O)c2n1	inactive
COc1ccc(C2CC(c3ccc4ccccc4c3)=NN2/C=C2\SC(=S)N(NC(=O)Cc3ccccc3Nc3c(Cl)cccc3Cl)C2=O)cc1 (centres undefined)	inactive
Clc1ccc2c(NCCCCNc3nc(N4CCOCC4)nc4ccccc34)ccnc2c1	active

Exercise: Please indicate how the test categorized C=C1C(=O)O[C@H]2[C@H]1CC/C(COC(=O)NCc1ccc(OC)c(OC)c1)=C\CC[C@@]1(C)O[C@@H]21 .
Solution: inactive

Exercise: Also Cc1cc(N2CCCCCC2)nc(NC2CCCC(Nc3ccnc4cc(Cl)ccc34)C2)n1 (centres undefined) ?
Solution: active

Exercise: Also COc1ccc2[nH]cc(-c3noc(C(=O)c4cn(C)c5ccc(F)cc45)n3)c2c1 ?
Solution: inactive

Exercise: Also COc1cc2c(cc1-c1c(C)noc1C)ncc1nc(C3CCOCC3)n([C@@H](C)COC(F)F)c12 ?
Solution: inactive
